- System: HCT-116
- ASSAY NAME: cells
- MEASUREMENT CONDITIONS: Homo sapiens, HCT-116, 72 h
- Description: Antiproliferative activity against human HCT-116 cells assessed as reduction in cell viability incubated for 72 hrs by MTT assay
IC50 vs 1 µM: less than gives met; not less than gives not met.

Reference set (9 entries):
CCN1CCN(c2ncc3c(n2)CCN(C(=O)c2cc(C(C)C)c(O)cc2O)C3)CC1 : not met
CC(C)c1cc(C(=O)N2CCc3nc(OC4CCN(C)CC4)ncc3C2)c(O)cc1O : not met
CCOc1nc(OCCOC)nc2c1CN(C(=O)c1cc(C(C)C)c(O)cc1O)CC2 : met
COc1ncc2c(n1)CCN(C(=O)c1cc(C(C)C)c(O)cc1O)C2 : not met
CCCCN(CCCC)c1ncc2c(n1)CCN(C(=O)c1cc(C(C)C)c(O)cc1O)C2 : not met
CC(C)c1cc(C(=O)N2CCc3nc(N4CCCC4)ncc3C2)c(O)cc1O : not met
CC(C)c1cc(C(=O)N2CCc3nc(N4CCCCC4)ncc3C2)c(O)cc1O : not met
COCCOc1nc2c(c(NC(C)C)n1)CN(C(=O)c1cc(C(C)C)c(O)cc1O)CC2 : met
COCCOc1nc2c(c(NC3CC3)n1)CN(C(=O)c1cc(C(C)C)c(O)cc1O)CC2 : met

Shifting focus to the compound that follows.
Exercise: # TODO verify IC50 < 1 µM strictly for this compound: "CC(C)c1cc(C(=O)N2CCc3nc(OC4CCCCC4)ncc3C2)c(O)cc1O"
Key: not met
